- target_or_test_system: T1, human FcRn/b2M (human, UniProt P61769 21-119, biotinylated)
- T1 construct: bought recombinant biotinylated protein (ACRO FCM-H82W4 or Immunitrack ITF01); also called hFcRn; hFcRn/hb2M
- T1 sequence (chain, as listed by the source limits assumed, chain 1 of 2): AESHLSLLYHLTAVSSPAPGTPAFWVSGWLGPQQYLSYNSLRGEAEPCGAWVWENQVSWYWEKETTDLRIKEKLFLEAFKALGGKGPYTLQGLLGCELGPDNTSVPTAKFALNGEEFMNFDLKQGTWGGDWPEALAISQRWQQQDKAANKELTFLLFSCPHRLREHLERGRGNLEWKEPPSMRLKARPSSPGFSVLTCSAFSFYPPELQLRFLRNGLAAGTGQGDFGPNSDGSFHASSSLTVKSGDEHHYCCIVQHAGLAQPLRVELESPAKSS
- T1 sequence (P61769 21-119 limits assumed, chain 2 of 2): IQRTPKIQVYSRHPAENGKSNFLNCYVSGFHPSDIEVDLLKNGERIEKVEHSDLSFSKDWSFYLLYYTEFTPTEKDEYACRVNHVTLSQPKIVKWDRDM
- procedure_details: SPR off-rate; pH 7.4 vs pH 6.0;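 also: surface plasmon resonance with diluted periplasmic extracts flowed over ligand surfaces, 120 s association and 600–3600 s dissociation at 25 °C, running buffer containing 150 mM NaCl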
Here the recorded kd ratio pH 7.4/6.0 is given for each entry.
The answer should be a number; do not append a unit.

binder	measured
T0263018B11 T96M (VHH, name in Kabat numbering, FLAG3-His6 tagged) VHH: EVQLVESGGGVVQPGGSLRLSCAASGFTFSSYAMYWVRQAPGKGLEWVSAISSGGGSTDYADSVKGRFTISRDNSKNTLYLQMNSLRPEDTALYYCAADMLYTSLTWYSYWGQGTLVTVSS	42
T0263018B11 S101M (VHH, name in Kabat numbering, FLAG3-His6 tagged) VHH: EVQLVESGGGVVQPGGSLRLSCAASGFTFSSYAMYWVRQAPGKGLEWVSAISSGGGSTDYADSVKGRFTISRDNSKNTLYLQMNSLRPEDTALYYCAADTLYTSLTWYMYWGQGTLVTVSS	44
T0263018B11 S30G (VHH, name in Kabat numbering, FLAG3-His6 tagged) VHH: EVQLVESGGGVVQPGGSLRLSCAASGFTFGSYAMYWVRQAPGKGLEWVSAISSGGGSTDYADSVKGRFTISRDNSKNTLYLQMNSLRPEDTALYYCAADTLYTSLTWYSYWGQGTLVTVSS	38
T0263018B11 S31Q (VHH, name in Kabat numbering, FLAG3-His6 tagged) VHH: EVQLVESGGGVVQPGGSLRLSCAASGFTFSQYAMYWVRQAPGKGLEWVSAISSGGGSTDYADSVKGRFTISRDNSKNTLYLQMNSLRPEDTALYYCAADTLYTSLTWYSYWGQGTLVTVSS	43
T0263018B11 T57F (VHH, name in Kabat numbering, FLAG3-His6 tagged) VHH: EVQLVESGGGVVQPGGSLRLSCAASGFTFSSYAMYWVRQAPGKGLEWVSAISSGGGSFDYADSVKGRFTISRDNSKNTLYLQMNSLRPEDTALYYCAADTLYTSLTWYSYWGQGTLVTVSS	33
T0263018B11 T57I (VHH, name in Kabat numbering, FLAG3-His6 tagged) VHH: EVQLVESGGGVVQPGGSLRLSCAASGFTFSSYAMYWVRQAPGKGLEWVSAISSGGGSIDYADSVKGRFTISRDNSKNTLYLQMNSLRPEDTALYYCAADTLYTSLTWYSYWGQGTLVTVSS	33
T0263018B11 S56L (VHH, name in Kabat numbering, FLAG3-His6 tagged) VHH: EVQLVESGGGVVQPGGSLRLSCAASGFTFSSYAMYWVRQAPGKGLEWVSAISSGGGLTDYADSVKGRFTISRDNSKNTLYLQMNSLRPEDTALYYCAADTLYTSLTWYSYWGQGTLVTVSS	26

Let us move to another entry and its kd ratio pH 7.4/6.0.
Prompt: Sample T0263018B11 G54P (VHH, name in Kabat numbering, FLAG3-His6 tagged) VHH: EVQLVESGGGVVQPGGSLRLSCAASGFTFSSYAMYWVRQAPGKGLEWVSAISSGPGSTDYADSVKGRFTISRDNSKNTLYLQMNSLRPEDTALYYCAADTLYTSLTWYSYWGQGTLVTVSS — what was its kd ratio pH 7.4/6.0?
Completion: 21

Where these numbers come from: patent US20240132624A1
